protocol details: Mouse pharmacokinetics, plasma and brain, oral dose
Assay type: in vivo, CD1 mouse
reported conditions: CD1, po, brain, p.o. 10 mg/kg
measure name: half-life (h)
Your answer is read as h, so omit the unit and give the number.

Look up half-life for this compound: O=C(O)CSc1ncnc2c(C3CC3)c(Cl)sc12
7.1

* * *

protocol details: Mouse pharmacokinetics, plasma and brain, oral dose
Assay type: in vivo, CD1 mouse
reported conditions: CD1, po, plasma, p.o. 10 mg/kg
Source text: The route of administration and dose were selected to most closely match relevant published mouse disease model studies. […] Table S1: Study design summary S8 (1 picture or pasted object on this page, not shown here)
measure name: AUC(0-t) (µg·h/mL)
Your answer is read as µg·h/mL, so omit the unit and give the number.

Look up AUC(0-t) for this compound: O=C(O)CSc1ncnc2c(C3CC3)c(Cl)sc12 [Compound 1]
303
